B1: Caulobacter ParB omega fusion; a variant is named by its letters at X, in order, B8GW30 (parent)
chain: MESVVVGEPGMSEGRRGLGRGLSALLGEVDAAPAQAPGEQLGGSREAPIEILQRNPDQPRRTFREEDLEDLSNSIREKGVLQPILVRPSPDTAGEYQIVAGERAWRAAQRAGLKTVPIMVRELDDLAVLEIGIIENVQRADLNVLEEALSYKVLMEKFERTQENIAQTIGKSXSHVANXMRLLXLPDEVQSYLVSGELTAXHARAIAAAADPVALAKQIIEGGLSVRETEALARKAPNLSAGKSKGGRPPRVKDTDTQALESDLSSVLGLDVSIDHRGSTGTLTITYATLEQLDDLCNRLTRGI

# Variants of: B1
# protocolDescription: one-hybrid fitness for binding NBS DNA (the Noc-binding site; scaled: cognate 1, non-cognate 0); higher = stronger binding
# testParameters: with NBS DNA site
The full ranking holds about 81,000 sequences; the median of “one-hybrid fitness for binding NBS DNA” is about -0.1, and the highest 2% start at about 0.36. The sample holds the highest values, similar sequences and a random draw of the others, so the mix is not that of the screen.
resultType: one-hybrid fitness for binding NBS DNA
Give only the figure.

Record `RRKD` , field one-hybrid fitness for binding NBS DNA: 0.226

Form: variant = `QSCR` ; one-hybrid fitness for binding NBS DNA = 0.493

get_value(item= `QICS` , readout=one-hybrid fitness for binding NBS DNA) returns 0.216

The reported one-hybrid fitness for binding NBS DNA of the variant `RRKE` was 0.214

For this variant ( `RCKN` ), measured one-hybrid fitness for binding NBS DNA is 0.27

Noted for `RRVN` : its one-hybrid fitness for binding NBS DNA reads 0.238

variant `RRRF` , one-hybrid fitness for binding NBS DNA observed: 0.442

// field: one-hybrid fitness for binding NBS DNA; key: `QHCR` ; value = 0.473

`QHCS` has a reported one-hybrid fitness for binding NBS DNA of 0.279
